// data source = ChEMBL document CHEMBL1144516

test system: Bombyx mori; assay: Stimulation of transcription of acyl-CoA binding protein in pheromone gland of Silkmoth P50 at 0.2 mg after 18 hrs; assay type: functional, organism-based
Calls of active or inactive are those of the source. The calls are words filed in the database; no cut-off is given here.
Outcome codes: yes for active, no for inactive

{"Compound": "N[C@@H](Cc1ccc(O[C@H]2O[C@@H](CO)[C@H](O)[C@@H](O)[C@@H]2O)cc1)C(=O)O", "Answer label": "no"}
{"Compound": "N[C@H](Cc1ccc(O[C@H]2O[C@@H](CO)[C@H](O)[C@@H](O)[C@@H]2O)cc1)C(=O)O", "Answer label": "no"}
{"Compound": "N[C@H](Cc1ccc(OC2O[C@H](CO)[C@@H](O)[C@H](O)[C@H]2O)cc1)C(=O)O (stereo not given in full)", "Answer label": "no"}
{"Compound": "N[C@@H](Cc1ccc(O[C@@H]2O[C@H](CO)[C@H](O)[C@H](O)[C@H]2O)cc1)C(=O)O", "Answer label": "yes"}
{"Compound": "N[C@H](Cc1ccc(O[C@@H]2O[C@H](CO)[C@H](O)[C@H](O)[C@H]2O)cc1)C(=O)O", "Answer label": "no"}
